Reported values of Ki for individual entries
Biological target: human Adenosine A1 receptor (Homo sapiens (Human), UniProt P30542)
Sequence (P30542 whole entry): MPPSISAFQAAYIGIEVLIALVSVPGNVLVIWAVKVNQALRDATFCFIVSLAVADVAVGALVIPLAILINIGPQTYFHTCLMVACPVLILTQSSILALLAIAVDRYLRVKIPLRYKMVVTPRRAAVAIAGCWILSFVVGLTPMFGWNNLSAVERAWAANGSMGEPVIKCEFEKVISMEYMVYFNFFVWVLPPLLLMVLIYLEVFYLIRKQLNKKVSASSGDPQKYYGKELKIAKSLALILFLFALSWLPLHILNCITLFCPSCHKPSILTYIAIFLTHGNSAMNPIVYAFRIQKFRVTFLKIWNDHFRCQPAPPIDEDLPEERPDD
Assay: Adenosine receptor TR-FRET binding assay (A1)
Conditions: inhibition of binding of 100 nM CA200645; CHO cell membranes; Ki from IC50 by Cheng and Prusoff
Entry rule: numbers only, all in nM.

# count of solved cases: 2
Cc1ncnc2ccc(-c3sc(NC(=O)N4CCN(C5CCN(C)CC5)CC4)nc3-c3cccc(C#N)c3)cc12 :: 125
Cc1ncnc2ccc(-c3sc(NC(=O)N4CCC5(CC4)CNC(=O)C5)nc3-c3cccc(C#N)c3)cc12 :: 13

Briefly, Ki measured for Cc1ncnc2ccc(-c3sc(NC(=O)N4CCC5(CC4)COCCN5)nc3-c3cccc(C#N)c3)cc12 : 70

Briefly, Ki measured for Cc1ncnc2ccc(-c3sc(NC(=O)N4CC5CN(C)CC54)nc3-c3cccc(C#N)c3)cc12 (stereo not shown) : 19

====

Measurement record for human Adenosine A2b receptor (Homo sapiens (Human)); quantity recorded: Ki.
Give the value; after it, write the unit.

The reported human Adenosine A2b receptor (Homo sapiens (Human)) Ki of Cc1ncnc2ccc(-c3sc(NC(=O)N4CC5(CN(C)C5)C4)nc3-c3cccc(C#N)c3)cc12 is 6.4 nM

====

Reported values of Ki for individual entries
Target: human Adenosine A1 receptor (Homo sapiens (Human), UniProt P30542)
Test: Adenosine receptor TR-FRET binding assay (A1)

# count of solved cases: 2
Cc1ncnc2ccc(-c3sc(NC(=O)N4CC5(COCCN5)C4)nc3-c3cccc(C#N)c3)cc12 :: 34 nM
Cc1ncnc2ccc(-c3sc(NC(=O)N4CCC5(COCCN5)C4)nc3-c3cccc(C#N)c3)cc12 (stereo not drawn) :: 30 nM

Could you now look at the following compound, please?
Briefly, Ki measured for Cc1ncnc2ccc(-c3sc(NC(=O)N4CC5(CNCCO5)C4)nc3-c3cccc(C#N)c3)cc12 : 42 nM

====

Target: human Adenosine A1 receptor (Homo sapiens (Human))
Experiment: Adenosine receptor TR-FRET binding assay (A1)
Conditions: inhibition of binding of 100 nM CA200645; CHO cell membranes; Ki from IC50 by Cheng and Prusoff
Kindly apply the following: satisfied if Ki is less than 20 nM, not satisfied in every other case.

Cc1cc(-c2sc(NC(=O)N3CC4(COC4)C3)nc2-c2cccc(C#N)c2)cc2cn(C)nc12 [Example 28] :: not satisfied
Cc1ncnc2ccc(-c3sc(NC(=O)N4CCC(C)(C#N)CC4)nc3-c3cccc(C#N)c3)cc12 [Example 6] :: satisfied

Ask | Lab note: Ki threshold 20 nM. Does this molecule come in strictly under it? Cc1ncnc2ccc(-c3sc(NC(=O)N4CCC5(CC4)CN(C)C(=O)O5)nc3-c3cccc(C#N)c3)cc12 [Example 7.26]
Reply | satisfied

Ask | Lab note: Ki threshold 20 nM. Does this molecule come in strictly under it? Cc1ncnc2ccc(-c3sc(NC(=O)N4CCC(N5CCOCC5)CC4)nc3-c3cccc(C#N)c3)cc12 [Example 7.14]
Reply | not satisfied

Ask | Lab note: Ki threshold 20 nM. Does this molecule come in strictly under it? Cc1ncnc2ccc(-c3sc(NC(=O)N4CCN(CCO)CC4)nc3-c3cccc(C#N)c3)cc12 [Example 7.27]
Reply | not satisfied

Ask | Lab note: Ki threshold 20 nM. Does this molecule come in strictly under it? Cc1ncnc2ccc(-c3sc(NC(=O)N4CCOC(CN(C)C)C4)nc3-c3cccc(C#N)c3)cc12 (stereo not drawn) [Example 7.8]
Reply | satisfied

Ask | Lab note: Ki threshold 20 nM. Does this molecule come in strictly under it? N#Cc1cccc(-c2nc(NC(=O)N3CC4(COC4)C3)sc2-c2ccc3ncncc3c2)c1 [Example 10]
Reply | satisfied

Ask | Lab note: Ki threshold 20 nM. Does this molecule come in strictly under it? Cc1cc(-c2sc(NC(=O)N3CC4(COC4)C3)nc2-c2cccc(C#N)c2)c2cc[nH]c2n1 [Example 34]
Reply | not satisfied

Ask | Lab note: Ki threshold 20 nM. Does this molecule come in strictly under it? Cc1cc(-c2sc(NC(=O)N3CCC(C)(C#N)CC3)nc2-c2cccc(C#N)c2)c2[nH]ncc2n1 [Example 19]
Reply | not satisfied

Ask | Lab note: Ki threshold 20 nM. Does this molecule come in strictly under it? Cc1ncnc2ccc(-c3sc(NC(=O)N4CCN(C(C)C#N)CC4)nc3-c3cccc(C#N)c3)cc12 (stereo not drawn) [Example 7.5]
Reply | satisfied

Ask | Lab note: Ki threshold 20 nM. Does this molecule come in strictly under it? Cc1ncnc2ccc(-c3sc(NC(=O)N4CCCNCC4)nc3-c3cccc(C#N)c3)cc12 [Example 7.18]
Reply | satisfied

Ask | Lab note: Ki threshold 20 nM. Does this molecule come in strictly under it? Cc1ncnc2ccc(-c3sc(NC(=O)N4CCN[C@H](C(C)(C)O)C4)nc3-c3cccc(C#N)c3)cc12 [Example 7.16]
Reply | satisfied

Ask | Lab note: Ki threshold 20 nM. Does this molecule come in strictly under it? N#Cc1cccc(-c2nc(NC(=O)N3CC4(COC4)C3)sc2-c2ccc3ncoc3c2)c1 [Example 35]
Reply | satisfied

Ask | Lab note: Ki threshold 20 nM. Does this molecule come in strictly under it? Cc1ncnc2ccc(-c3sc(NC(=O)N4CCC(N5CCNCC5)CC4)nc3-c3cccc(C#N)c3)cc12 [Example 3]
Reply | not satisfied

Ask | Lab note: Ki threshold 20 nM. Does this molecule come in strictly under it? Cc1ncnc2ccc(-c3sc(NC(=O)N4CCC5(CCC(=O)N5)CC4)nc3-c3cccc(C#N)c3)cc12 [Example 7.23]
Reply | satisfied

====

Reported values of pKi for individual entries
Target: UniProtKB P30542
Experiment: Adenosine receptor TR-FRET binding assay (A1)
Conditions: inhibition of binding of 100 nM CA200645; CHO cell membranes; Ki from IC50 by Cheng and Prusoff
Interpret pKi as the negative base-10 log of the concentration measured in mol/L.

# count of solved cases: 5
Cc1ncnc2ccc(-c3sc(NC(=O)N4CC5CCCN(C)C5C4)nc3-c3cccc(C#N)c3)cc12 (stereo not shown) :: 7.01
Cc1ncnc2ccc(-c3sc(NC(=O)N4CCOC(C(C)(C)O)C4)nc3-c3cccc(C#N)c3)cc12 (racemic) :: 8.05
Cc1nc(C)c(-c2sc(NC(=O)N3CCC(C)(C#N)CC3)nc2-c2cccc(C#N)c2)o1 :: 7.92
Cc1ncnc2ccc(-c3sc(NC(=O)N4CC5(CCO5)C4)nc3-c3cccc(C#N)c3)cc12 :: 7.89
Cc1cnc2ccc(-c3sc(NC(=O)N4CC5(COC5)C4)nc3-c3cccc(C#N)c3)cn12 :: 9.40

Briefly, pKi measured for Cc1ncnc2ccc(-c3sc(NC(=O)N4CCC(OCCN5CCCC5)C4)nc3-c3cccc(C#N)c3)cc12 (stereo not shown) : 7.68

Briefly, pKi measured for Cc1ncnc2ccc(-c3sc(NC(=O)N4CC5(C4)CC(C)(O)C5)nc3-c3cccc(C#N)c3)cc12 : 7.74

====

Molecular target: UniProtKB P29274
Sequence (P29274 whole entry): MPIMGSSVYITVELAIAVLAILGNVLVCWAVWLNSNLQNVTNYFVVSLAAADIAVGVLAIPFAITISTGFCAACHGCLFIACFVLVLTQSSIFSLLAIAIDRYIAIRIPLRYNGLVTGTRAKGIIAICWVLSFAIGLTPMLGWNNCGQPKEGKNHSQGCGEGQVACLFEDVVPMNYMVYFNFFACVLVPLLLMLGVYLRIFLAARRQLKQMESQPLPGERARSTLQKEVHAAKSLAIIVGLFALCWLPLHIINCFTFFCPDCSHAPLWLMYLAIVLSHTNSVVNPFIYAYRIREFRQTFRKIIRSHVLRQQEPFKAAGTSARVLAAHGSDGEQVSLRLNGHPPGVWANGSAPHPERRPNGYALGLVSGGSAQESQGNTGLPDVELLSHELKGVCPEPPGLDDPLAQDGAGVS
Assay: Adenosine receptor TR-FRET binding assay (A2a)
Conditions: inhibition of binding of 100 nM CA200645; CHO cell membranes; Ki from IC50 by Cheng and Prusoff
Kindly apply the following: rule met if Ki is less than 200 pM, rule not met in every other case.

# example entries with known answers
Cc1ncnc2ccc(-c3sc(NC(=O)N4CCC(N5CCN(C)CC5)CC4)nc3-c3cccc(C#N)c3)cc12 :: rule not met
Cc1cc(-c2sc(NC(=O)N3CC4(COC4)C3)nc2-c2cccc(C#N)c2)cc2cn[nH]c12 :: rule met
Cc1ncnc2ccc(-c3sc(NC(=O)N4CCCNCC4)nc3-c3cccc(C#N)c3)cc12 :: rule not met
Cc1ncnc2ccc(-c3sc(NC(=O)N4CCO[C@H](C(C)(C)O)C4)nc3-c3cccc(C#N)c3)cc12 (single isomer, unassigned) [Example 7.7a] :: rule met

Ask | Lab note: Ki threshold 200 pM. Does this compound come in strictly under it? Cc1cc(-c2sc(NC(=O)N3CC4(COC4)C3)nc2-c2cccc(C#N)c2)cnc1-n1nccn1
Reply | rule not met

Ask | Lab note: Ki threshold 200 pM. Does this compound come in strictly under it? Cc1ncnc2ccc(-c3sc(NC(=O)N4CCN(C5CCN(C)CC5)CC4)nc3-c3cccc(C#N)c3)cc12
Reply | rule not met

Ask | Lab note: Ki threshold 200 pM. Does this compound come in strictly under it? CCc1ncnc2ccc(-c3sc(NC(=O)N4CC5(COC5)C4)nc3-c3cccc(C#N)c3)cc12
Reply | rule met

Ask | Lab note: Ki threshold 200 pM. Does this compound come in strictly under it? Cc1ncnc2ccc(-c3sc(NC(=O)N4CC[C@@](C)(C#N)C4)nc3-c3cccc(C#N)c3)cc12
Reply | rule not met

Ask | Lab note: Ki threshold 200 pM. Does this compound come in strictly under it? Cn1ccc2c(-c3sc(NC(=O)N4CC5(COC5)C4)nc3-c3cccc(C#N)c3)ccnc21
Reply | rule not met
